- experiment_description: Circular dichroism helicity
- Assay type: physicochemical
- settings: CD, 10 μM in 1:1 water:acetonitrile, molar ellipticity at 222 nm; stabilized peptide
property_label: Helicity, Stabilized (S) (%)

Observe how each entry below is paired with its result.
residue_sequence: ETFXDLWRLLXEN (sidechain bridge or staple) [SPD-M0-E(−2)]
output_unit: %
Helicity, Stabilized (S): 53

residue_sequence: QTFXDLWRLLXQN (sidechain bridge or staple) [SPD-M0-E(0)]
output_unit: %
Helicity, Stabilized (S): 41

residue_sequence: ETAXDLWRLLXEN (sidechain bridge or staple) [SPD-M0-E(−2)-F19A]
output_unit: %
Helicity, Stabilized (S): 50

1 = QTFXDLWRLLXEN (sidechain bridge or staple) [SPD-M0-E(−1)]
2 = GGTFXGYWADLXAF (sidechain bridge or staple) [SPD-M3-G1]
Pick one: 1 or 2 . Which one has the lower reported Helicity, Stabilized (S)? Refer to your chosen item by its label in the answer. 2
